- study target: Glutaminase kidney isoform, mitochondrial (Homo sapiens)
- Sequence (O94925 whole entry, canonical isoform): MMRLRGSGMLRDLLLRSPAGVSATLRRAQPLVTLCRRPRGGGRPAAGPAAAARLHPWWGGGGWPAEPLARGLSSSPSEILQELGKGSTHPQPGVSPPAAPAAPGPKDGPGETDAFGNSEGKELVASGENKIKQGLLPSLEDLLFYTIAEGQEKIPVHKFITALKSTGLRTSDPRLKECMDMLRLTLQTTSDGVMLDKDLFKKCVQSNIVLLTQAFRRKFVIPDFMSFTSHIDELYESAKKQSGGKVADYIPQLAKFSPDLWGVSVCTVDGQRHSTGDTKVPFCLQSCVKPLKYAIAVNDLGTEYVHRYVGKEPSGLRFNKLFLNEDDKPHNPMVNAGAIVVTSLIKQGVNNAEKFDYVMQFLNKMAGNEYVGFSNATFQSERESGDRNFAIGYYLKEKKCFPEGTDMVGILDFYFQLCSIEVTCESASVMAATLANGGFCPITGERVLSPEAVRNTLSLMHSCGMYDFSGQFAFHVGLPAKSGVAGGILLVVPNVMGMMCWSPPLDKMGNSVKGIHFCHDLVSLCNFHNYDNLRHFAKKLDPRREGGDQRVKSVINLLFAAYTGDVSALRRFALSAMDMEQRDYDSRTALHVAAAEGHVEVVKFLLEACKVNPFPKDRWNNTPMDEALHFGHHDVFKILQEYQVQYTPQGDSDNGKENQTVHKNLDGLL
- test method notes: Inhibition of GLS1 (unknown origin)
IC50 overview
readout label: IC50 (nM)

- smi: "CC(C)CNC(=O)c1ccc(CN2CCN(c3nnc(NC(=O)Cc4ccccc4)s3)CC2)cc1"
  result number: 146
- smi: "O=C(Cc1ccccc1)Nc1nnc(N2CCC(CCOCc3cccc(C(=O)NCCN4CCCCC4)c3)CC2)s1"
  result number: 555
- smi: "CCN(CC)CCNC(=O)c1ccc(COCCC2CCN(c3nnc(NC(=O)Cc4ccccc4)s3)CC2)cc1"
  result number: 440
- smi: "CCCNC(=O)c1ccc(COCCC2CCN(c3nnc(NC(=O)Cc4ccccc4)s3)CC2)cc1"
  result number: 420
- smi: "CN1CCN(c2cccc(C(=O)Nc3ccc(CN4CCN(c5nnc(NC(=O)Cc6ccccc6)s5)CC4)cc3)c2)CC1"
  result number: 123
- smi: "O=C(Cc1ccccc1)Nc1nnc(N2CCN(Cc3ccc(C(=O)N4CCC(CO)CC4)cc3)CC2)s1"
  result number: 363
